protocolDescription: In vitro Cytotoxic concentration in mock-infected A3.01 cells - 100% toxicity.
Type: functional, Homo sapiens
measurementKind: CC100

[[record]]
compound = "Cc1cn([C@H]2C[C@H](N=[N+]=[N-])[C@@H](CO)O2)c(=O)[nH]c1=O [ZIDOVUDINE]"
valuereported = "3300 µM"

[[record]]
compound = "[N-]=[N+]=N[C@]1(CO)O[C@@H](n2cc(Cl)c(=O)[nH]c2=O)C[C@@H]1O"
valuereported = ">1000 µM"

[[record]]
compound = "[N-]=[N+]=N[C@]1(CO)O[C@@H](n2ccc(=O)[nH]c2=O)[C@H](O)[C@@H]1O"
valuereported = ">200 µM"

[[record]]
compound = "[N-]=[N+]=N[C@]1(CO)O[C@@H](n2ccc(N)nc2=O)[C@H](O)[C@@H]1O [4'-AZIDOCYTIDINE]"
valuereported = "74.1 µM"

[[record]]
compound = "CO[C@H]1C[C@H](n2cc(C)c(=O)[nH]c2=O)O[C@@]1(CO)N=[N+]=[N-]"
valuereported = ">200 µM"


Moving on to another compound below.
Briefly, CC100 measured for CO[C@]1(CO)O[C@@H](n2cc(C)c(=O)[nH]c2=O)C[C@@H]1O : >200 µM

====

Tested on: MT2
protocolDescription: In vitro Cytotoxic concentration which reduced G 691-2(post-AZT) infected MT-2 cells by 50 percent
Type: functional, cell-based
testSettings: Homo sapiens
In this section we review reported pIC50 values for a set of compounds.
Value format note: pIC50 is -log10 of concentration (mol/L); just state the number.

[[record]]
moleculesmiles = "Cc1cn([C@H]2C[C@H](N=[N+]=[N-])[C@@H](CO)O2)c(=O)[nH]c1=O"
tgt = "MT2"
measurementkind = "pIC50"
valuereported = 5.00


Attention now shifts to the item below.
The recorded pIC50 for Cc1cn([C@H]2C[C@H](O)[C@](CO)(N=[N+]=[N-])O2)c(=O)[nH]c1=O is 6.47

====

protocolDescription: In vitro Cytotoxic concentration in mock-infected A3.01 cells - 100% toxicity.
Format: functional, Homo sapiens
measurementKind: CC100

Observe how each entry below is paired with its result.
[[record]]
molecule = "[N-]=[N+]=N[C@]1(CO)O[C@@H](n2cnc3c(N)ncnc32)C[C@@H]1O"
valuereported = ">50 µM"

[[record]]
molecule = "[N-]=[N+]=N[C@]1(CO)O[C@@H](n2ccc(=O)[nH]c2=O)C[C@@H]1O"
valuereported = ">200 µM"

[[record]]
molecule = "CO[C@]1(CO)O[C@@H](n2cnc3c(N)ncnc32)C[C@@H]1O"
valuereported = ">1000 µM"


Summary for this molecule, COC1(CO)OC(n2cc(C)c(=O)[nH]c2=O)CC1F (centres undefined) : CC100 is >400 µM
